MEASURE: melting point

Past entries and their recorded results:
INSERT INTO assay_data (molecule, measure, result) VALUES
  ('N#Cc1ncccc1CCc1ccc(F)cc1', 'melting point', '48 to 49 °C'),
  ('CCc1[nH]n(C2CCCC2)c2nc(Oc3ccccc3)nc(=O)c1-2', 'melting point', '175 to 177 °C'),
  ('O=C1C(=O)c2ccc(-c3ccc(C(F)(F)F)cc3)cc2C2=C1SCC1(CCNCC1)O2', 'melting point', '190 to 240 °C'),
  ('Cc1cc(I)ccc1NC(=S)N(C)N', 'melting point', '160 to 161 °C'),
  ('CCOC(=O)CCC1CCN(C(=O)[C@H](C)NC(=O)c2ccc(C#N)cc2)CC1', 'melting point', '108 to 109 °C');

Data point: NC1(NC(=O)C(F)(F)F)CN(c2c(F)cc3c(=O)c(C(=O)O)cn(-c4ccc(F)cc4F)c3c2F)C1 ; melting point = 190 to 196 °C

Reported melting point ( CONC(=N)c1nn(-c2c(Cl)cc(C(F)(F)F)cc2Cl)c(N)c1S(C)=O (stereo not given) ) = 169 to 170 °C

So, CCCN=C(Cc1ccccc1)N1CC2C(=O)CCC(c3ccccc3)(c3ccccc3)C2C1 (stereo not given) ? Its melting point was 86 °C

The molecule identified as Cc1nc2c(N)nc3c(c2n1CCOCCCc1cccnc1)CCCC3 registered its melting point at 140 to 141 °C

The molecule CC(=O)OCC1=NC(NC(=O)Nc2cccc(C)c2)C(=O)N(CC(=O)N2CCCCCCC2)c2c(C)cccc21 (stereo not given) showed melting point equal to 112 to 114 °C

====

Listing of recorded melting point by entry.

Example entries and their recorded answers appear below.
INSERT INTO measurements (compound, measure, result) VALUES
  ('O=c1ccoc(C(O)c2cccnc2)c1O (stereo not given)', 'melting point', '176 to 180 °C'),
  ('COc1cc(N(C)C(C)C)ccc1CN1C(=O)C(C)(c2ccccc2Cl)c2cc(Cl)ccc21 (stereo not given)', 'melting point', '156 °C'),
  ('O=C(O)c1c[nH]c(SCc2ccccc2)c1SCc1ccccc1', 'melting point', '160 to 162 °C'),
  ('CCOC(=O)c1ccc(SCC)c(-c2cc(C)no2)c1C', 'melting point', '39 to 40 °C'),
  ('N#Cc1ccc2c(c1)C=C(C(=O)O)C(C(F)(F)F)N2 (stereo not given)', 'melting point', '238 to 240 °C'),
  ('COC(=O)c1ccc(NC(=O)c2cc(C(C)C)c(C(C)C)s2)cc1OC', 'melting point', '172 to 173 °C'),
  ('COc1ccc(C(=O)Nc2ccc3ccc(Cl)nc3n2)cn1', 'melting point', '270 °C'),
  ('COc1ccc(C(CC(=O)Nc2cc(C(N)=O)ccc2C(C)(C)C)CC(C)C)c(OC)c1 (stereo not given)', 'melting point', '194 to 196 °C'),
  ('C[C@@H]1[C@H](c2ccccc2)OC(=O)N1C(=O)CC1c2ccccc2C=Cc2ccccc21', 'melting point', '172 to 173 °C');

Moving on to another compound below.
Recorded melting point (compound COc1ccc([C@@H]2OC(=O)[C@H](Cc3ccccc3)N2C(=O)OCc2ccccc2)cc1 ): 85 °C

These entries and their values trace back to a melting point compilation (Tetko et al.; mined from patent text by program, amines drawn as free bases though some values may be those of a salt).
